- Measured target: monoclonal antibody 21-4-3
- Experiment summary: SPR, 21-4-3 captured via anti-mouse IgG, 500 nM
Test readout: binding as % of Reference Sequence (=100%)
The reply should be a number in %, with the unit left off.

Example cases with answers are listed next.
Binder: Nanobody or Nanobody construct of SEQ ID NO: 70 (VHH) VHH: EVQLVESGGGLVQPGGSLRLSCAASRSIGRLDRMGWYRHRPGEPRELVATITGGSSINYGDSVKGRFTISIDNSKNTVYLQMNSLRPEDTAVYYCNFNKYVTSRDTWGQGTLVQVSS
Number: 106
//
Binder: Nanobody or Nanobody construct of SEQ ID NO: 85 (VHH) VHH: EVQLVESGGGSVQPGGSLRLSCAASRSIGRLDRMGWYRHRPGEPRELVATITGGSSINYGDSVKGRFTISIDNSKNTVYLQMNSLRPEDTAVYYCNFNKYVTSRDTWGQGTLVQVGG
Number: 32
//
Binder: Nanobody or Nanobody construct of SEQ ID NO: 81 (VHH) VHH: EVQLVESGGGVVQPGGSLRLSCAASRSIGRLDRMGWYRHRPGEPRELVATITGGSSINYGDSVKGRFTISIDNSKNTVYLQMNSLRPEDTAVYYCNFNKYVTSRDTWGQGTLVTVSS
Number: 75
//
Binder: Nanobody or Nanobody construct of SEQ ID NO: 67 (VHH) VHH: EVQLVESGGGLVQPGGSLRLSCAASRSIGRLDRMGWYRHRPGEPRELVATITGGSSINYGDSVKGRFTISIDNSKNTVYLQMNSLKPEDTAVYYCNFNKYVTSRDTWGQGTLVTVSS
Number: 101
//
Binder: Nanobody or Nanobody construct of SEQ ID NO: 66 (VHH) VHH: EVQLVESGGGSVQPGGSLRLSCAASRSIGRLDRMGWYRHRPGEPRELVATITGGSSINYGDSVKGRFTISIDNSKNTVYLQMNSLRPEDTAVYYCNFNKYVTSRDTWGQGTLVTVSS
Number: 48

Reported binding as % of Reference Sequence (=100%) for Nanobody or Nanobody construct of SEQ ID NO: 43 (VHH) DVQLVESGGGLVQPGGSLRLSCAASGFILDYYAIGWFRQAPGKEREGVLCIDASDDITYYADSVKGRFTISRDNSKNTVYLQMNSLRPEDTAVYYCATPIGLSSSCLLEYDYDYWGQGTLVTVSSGGGGSGGGSEVQLLESGGGLVQPGGSLRLSCAASGFTFRSFGMSWVRQAPGKGPEWVSSISGSGSDTLYADSVKGRFTISRDNSKNTLYLQMNSLRPEDTAVYYCTIGGSLSRSSQGTLVTVSSA was 3

Given item Nanobody or Nanobody construct of SEQ ID NO: 80 (VHH) VHH: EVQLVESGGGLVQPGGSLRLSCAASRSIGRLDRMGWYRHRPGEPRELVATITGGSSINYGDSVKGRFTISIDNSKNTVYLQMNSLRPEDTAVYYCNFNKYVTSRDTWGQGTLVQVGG , the value recorded as its binding as % of Reference Sequence (=100%) is 51

// binding as % of Reference Sequence (=100%) value for Nanobody or Nanobody construct of SEQ ID NO: 49 (VHH) VHH: EVQLLESGGGLVQPGGSLRLSCAASGLPFSTKSMGWFRQAPGKGREFVSRISPGGTSRYYGDFVKGRFTISRDNSKNTLYLQMNSLRAEDTAVYYCASGERSTYIGSNYYRTNEYDYWGQGTLVTVSS : 4

Input Nanobody or Nanobody construct of SEQ ID NO: 83 (VHH) VHH: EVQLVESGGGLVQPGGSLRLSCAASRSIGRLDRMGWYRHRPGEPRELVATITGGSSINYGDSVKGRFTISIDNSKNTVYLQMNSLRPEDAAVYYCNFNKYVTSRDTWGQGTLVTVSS . Output binding as % of Reference Sequence (=100%): 79

Record Nanobody or Nanobody construct of SEQ ID NO: 82 (VHH) VHH: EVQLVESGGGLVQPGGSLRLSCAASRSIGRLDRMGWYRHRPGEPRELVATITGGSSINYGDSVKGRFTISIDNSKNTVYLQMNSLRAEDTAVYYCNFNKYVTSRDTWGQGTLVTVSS . Reported binding as % of Reference Sequence (=100%): 56

binding as % of Reference Sequence (=100%) recorded for this binder, Nanobody or Nanobody construct of SEQ ID NO: 84 (VHH) VHH: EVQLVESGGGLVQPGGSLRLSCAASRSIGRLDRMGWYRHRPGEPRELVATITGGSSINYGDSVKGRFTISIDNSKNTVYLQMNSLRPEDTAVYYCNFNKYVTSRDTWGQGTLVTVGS , is 91
